- Experimental Target: UniProtKB P05177
- Sequence (P05177 1-516): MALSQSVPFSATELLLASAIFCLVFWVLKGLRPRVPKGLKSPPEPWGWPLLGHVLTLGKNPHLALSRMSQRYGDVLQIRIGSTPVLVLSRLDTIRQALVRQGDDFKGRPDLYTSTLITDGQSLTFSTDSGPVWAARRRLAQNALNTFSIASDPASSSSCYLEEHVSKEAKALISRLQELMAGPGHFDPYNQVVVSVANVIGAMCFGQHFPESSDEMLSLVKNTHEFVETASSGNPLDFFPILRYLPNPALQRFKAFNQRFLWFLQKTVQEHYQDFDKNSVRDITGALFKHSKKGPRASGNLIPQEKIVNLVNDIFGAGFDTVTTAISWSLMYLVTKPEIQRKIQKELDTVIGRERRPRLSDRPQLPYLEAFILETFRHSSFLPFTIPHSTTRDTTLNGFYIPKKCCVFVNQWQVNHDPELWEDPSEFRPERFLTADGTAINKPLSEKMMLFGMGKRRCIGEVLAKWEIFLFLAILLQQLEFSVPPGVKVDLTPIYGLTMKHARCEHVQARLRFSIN
In this section we review reported pIC50 values for a set of compounds.
Answer as the number alone; pIC50 is minus log10 of concentration in mol/L.

Compound: CCc1ccc(C(=O)C(C)CN2CCCCC2)cc1.Cl (centres unmarked) [Eperisone hydrochloride]
Experimental Target: UniProtKB P05177
pIC50: 4.53
//
Compound: OC(c1ccc(Cl)cc1)(c1ccc(Cl)cc1)c1cccnc1
Experimental Target: UniProtKB P05177
pIC50: 4.41
//
Compound: CC[N+]1(C)CCCC1.[I-] [1-Ethyl-1-methylpyrrolidinium iodide]
Experimental Target: UniProtKB P05177
pIC50: 4.12

Measured pIC50, CCCC[N+](C)(CCCC)CCCC.O=S(=O)([N-]S(=O)(=O)C(F)(F)F)C(F)(F)F : 4.30

Lab note: CC(=O)c1ccc2ccc3ccccc3c2c1 gave pIC50 of 5.98

// pIC50 value for CCCCCCCCCCCCCC[P+](CCCCCC)(CCCCCC)CCCCCC.O=S(=O)([N-]S(=O)(=O)C(F)(F)F)C(F)(F)F : 4.43

Recorded pIC50 (compound O=C(Nc1ccccc1SSc1ccccc1NC(=O)c1ccccc1)c1ccccc1 [2,2'-Dibenzoylaminodiphenyl disulfide] ): 5.17

Record summary for CCc1cc(Cl)c(OC)c(C(=O)NC[C@@H]2CCCN2CC)c1O.Cl [Eticlopride hydrochloride] : reported pIC50 = 4.87
